Assign pIC50 to each entry below.
measured_on: TRPC4 (Homo sapiens, UniProt Q9UBN4)
Sequence (Q9UBN4 1-982 isoform Q9UBN4-5): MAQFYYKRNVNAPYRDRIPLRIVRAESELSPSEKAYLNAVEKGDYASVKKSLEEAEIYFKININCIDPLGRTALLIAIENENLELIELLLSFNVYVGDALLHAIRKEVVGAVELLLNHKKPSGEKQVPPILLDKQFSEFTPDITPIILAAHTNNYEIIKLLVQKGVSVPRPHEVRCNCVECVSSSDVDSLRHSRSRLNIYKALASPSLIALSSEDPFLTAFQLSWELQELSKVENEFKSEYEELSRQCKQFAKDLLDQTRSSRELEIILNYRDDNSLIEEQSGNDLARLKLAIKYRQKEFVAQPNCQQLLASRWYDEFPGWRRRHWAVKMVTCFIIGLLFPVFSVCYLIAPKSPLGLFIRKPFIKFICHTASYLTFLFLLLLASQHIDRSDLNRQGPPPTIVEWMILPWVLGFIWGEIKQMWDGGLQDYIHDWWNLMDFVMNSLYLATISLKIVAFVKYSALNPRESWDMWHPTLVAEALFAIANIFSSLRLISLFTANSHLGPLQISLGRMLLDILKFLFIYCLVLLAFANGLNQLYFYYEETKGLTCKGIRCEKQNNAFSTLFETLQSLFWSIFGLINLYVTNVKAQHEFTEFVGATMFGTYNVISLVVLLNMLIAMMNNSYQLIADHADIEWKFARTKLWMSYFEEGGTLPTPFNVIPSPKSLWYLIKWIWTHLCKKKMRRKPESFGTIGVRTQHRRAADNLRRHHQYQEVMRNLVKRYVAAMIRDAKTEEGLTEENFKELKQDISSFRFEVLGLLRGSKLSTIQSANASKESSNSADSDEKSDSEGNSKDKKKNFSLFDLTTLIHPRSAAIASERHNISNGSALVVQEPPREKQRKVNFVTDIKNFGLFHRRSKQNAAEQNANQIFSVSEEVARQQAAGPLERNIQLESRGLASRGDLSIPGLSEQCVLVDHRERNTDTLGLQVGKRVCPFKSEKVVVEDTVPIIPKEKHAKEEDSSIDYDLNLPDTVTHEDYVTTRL
method_summary: TRPC4 activity assay (FLIPR calcium fluorescence, Englerin A stimulation)
stated_conditions: HEK-TREx hTRPC4 cells, 100 nM Englerin A stimulation; read-out: TRPC4 (IC50 class)
pIC50: −log10 of the molar value.

Consider the molecule shown here: O=c1[nH]ncc(N2CCc3c(nc(CO)nc3Oc3ccc(F)cc3Cl)C2)c1Cl What is its recorded pIC50? > 7.30

Now this one: C[C@@H]1c2ncnc(Oc3ccc(F)cc3Cl)c2CCN1c1cn[nH]c(=O)c1Cl 6.30 to 7.30

Now this one: CC1Cc2c(ncnc2Oc2ccc(F)cc2Cl)CN1c1cn[nH]c(=O)c1Cl (single isomer, unassigned) 6.30 to 7.30

Now this one: COc1nc2c(c(Oc3ccccc3C(F)(F)F)n1)CCN(c1cn[nH]c(=O)c1Cl)C2 > 7.30

Now this one: O=c1[nH]ncc(N2CCc3c(nc(NCCO)nc3Oc3ccccc3C(F)(F)F)C2)c1Cl 6.30 to 7.30

Now this one: CCc1c(F)cccc1Oc1ncnc2c1CCN(c1cn[nH]c(=O)c1Cl)C2 6.30 to 7.30

Now this one: O=c1[nH]ncc(N2CCc3c(ccnc3Oc3ccc(F)cc3C(F)(F)F)C2)c1Cl > 7.30

Now this one: Nc1nc2c(c(Oc3ccc(F)cc3C(F)(F)F)n1)CCN(c1cn[nH]c(=O)c1Cl)C2 > 7.30
